# RUN_PARAMETERS: human, Liver;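 note: human cholestatic liver injury, shown by histopathology or by peak ALT or AST elevation over alkaline phosphatase ratio below 2, value counts indexed literature reports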
Some molecules, each annotated with its measured Hepatotoxicity (choleostasis).

Worked cases, Hepatotoxicity (choleostasis) given:
Cc1ccc(C(=O)c2cc(O)c(O)c([N+](=O)[O-])c2)cc1
0
CO[C@@]1(NC(=O)CSC[C@@H](N)C(=O)O)C(=O)N2C(C(=O)O)=C(CSc3nnnn3C)CS[C@@H]21
0
CC(C)(C)NC(=O)[C@@H]1C[C@@H]2CCCC[C@@H]2CN1C[C@@H](O)[C@H](Cc1ccccc1)NC(=O)[C@H](CC(N)=O)NC(=O)c1ccc2ccccc2n1
0
CCCN[C@H]1CCc2nc(N)sc2C1 [PRAMIPEXOLE]
0
C#C[C@]1(O)CC[C@H]2[C@@H]3CCC4=CC(=O)CC[C@@H]4[C@H]3CC[C@@]21CC
0
C=CCOc1ccccc1OCC(O)CNC(C)C (centres undefined)
0
Nc1ncn([C@@H]2O[C@H](CO)[C@@H](O)[C@H]2O)c(=O)n1
0
NCCCC(O)(P(=O)(O)O)P(=O)(O)O
0
[AsH3]
0
CN/C(=N/CCSCc1nc[nH]c1C)NC#N
10

Hepatotoxicity (choleostasis) measured on Nc1nc(-c2ccccc2)c(Br)c(=O)[nH]1 = 0

O=C1Nc2ccc(Cl)cc2C(c2ccccc2)=NC1O (centres undefined) yielded Hepatotoxicity (choleostasis) of 0

Record summary for Cc1c(F)c(N2CCNC(C)C2)cc2c1c(=O)c(C(=O)O)cn2C1CC1 (centres undefined) : reported Hepatotoxicity (choleostasis) = 0

Hepatotoxicity (choleostasis) in this record for NNc1nncc2ccccc12 [HYDRALAZINE] : 3

// sample CN[C@H]1CC[C@@H](c2ccc(Cl)c(Cl)c2)c2ccccc21 , its Hepatotoxicity (choleostasis) was 4

Looking up CCn1cc(C(=O)O)c(=O)c2cc(F)c(N3CCNCC3)cc21 , I found its Hepatotoxicity (choleostasis) recorded as 6

Consider Clc1ccc(C(Cn2ccnc2)OCc2ccsc2Cl)c(Cl)c1 (centres undefined) . Its measured Hepatotoxicity (choleostasis) is 0

Reported Hepatotoxicity (choleostasis) of CN(C)CCCn1c2c(c3ccccc31)CCCCCC2 : 6

So, O=C(O)COc1nn(Cc2ccccc2)c2ccccc12 ? Its Hepatotoxicity (choleostasis) was 2

// COc1cc(Cc2cnc(N)nc2N)cc(OC)c1OC.Cc1cc(NS(=O)(=O)c2ccc(N)cc2)no1 : Hepatotoxicity (choleostasis) value = 35

Measured Hepatotoxicity (choleostasis) of CC1(C)NC(=O)N(c2ccc([N+](=O)[O-])c(C(F)(F)F)c2)C1=O [NILUTAMIDE] : 0

What the record says about O=C1NS(=O)(=O)c2ccccc21 : Hepatotoxicity (choleostasis) is 0

Memo: Nc1ccn([C@H]2CC[C@@H](CO)O2)c(=O)n1 , reported Hepatotoxicity (choleostasis): 0

Hepatotoxicity (choleostasis) measured on O=C(O)c1ccccc1O.O=C(O)c1ccccc1O.O=C(O)c1ccccc1O = 0
